# System: HLA-DQ2
# assay protocol: Inhibition of IL-2 secretion by TCR transductants stimulated by α-gliadin peptides presented by HLA-DQ2 expressing K562 cells (ELISA)
# Format: cell-based, human
# recorded conditions: from dose-response curve; figure in brackets in the cell
# Protocol: Three commercially available analogues of the DQ2 binding molecules of the invention were tested for their ability to inhibit stimulation of T cell receptor (TCR) transductants in the presence of HLA-DQ2 expressing cells presenting known α-gliadin epitopes. […]
The following compounds are listed with their measured concentration at which the compound exhibited maximum % inhibition (DQ2 IL2) values.
metric name: concentration at which the compound exhibited maximum % inhibition (DQ2 IL2) (µM)

compound: COCCn1nc2c(cc1=O)CC(NC(=O)c1ccc(C(C)C)cc1)CC2 (centres unmarked)
number: 200
//
compound: Cn1nc2c(cc1=O)CC(NC(=O)C1CC1)CC2 (centres unmarked)
number: 200
//
compound: CC(C)c1ccc(C(=O)NC2CCc3nn(C4CCC4)c(=O)cc3C2)cc1 (centres unmarked)
number: 200
//
compound: CCCCc1ccc(C(=O)NC2CCc3n[nH]c(=O)cc3C2)cc1 (centres unmarked)
number: 50
//
compound: CC(C)(C)c1ccc(C(=O)NC2CCc3n[nH]c(=O)cc3C2)cc1 (centres unmarked)
number: 0.1
//
compound: Cn1nc2c(cc1=O)CC(NC(=O)C(C)(C)C)CC2 (centres unmarked)
number: 100
//
compound: CC(C)c1ccc(C(=O)NC2CCc3nn(CC(C)(C)O)c(=O)cc3C2)cc1 (centres unmarked)
number: 200
//
compound: CCn1nc2c(cc1=O)CC(NC(=O)c1ccc(C(C)C)cc1)CC2 (centres unmarked)
number: 200
//
compound: CC(=O)NC1CCc2n[nH]c(=O)cc2C1 (centres unmarked)
number: 50
//
compound: Cn1nc2c(cc1=O)CC(NC(=O)c1ccc(Br)cc1)CC2 (centres unmarked)
number: 200
//
compound: CCCc1ccc(C(=O)NC2CCc3n[nH]c(=O)cc3C2)cc1 (centres unmarked)
number: 100
//
compound: CC(C)c1ccc(C(=O)NC2CCc3nn(Cc4ccccc4)c(=O)cc3C2)cc1 (centres unmarked)
number: 200
//
compound: CCCCn1nc2c(cc1=O)CC(NC(=O)c1ccc(C(C)C)cc1)CC2 (centres unmarked)
number: 200
//
compound: O=C(NC1CCc2n[nH]c(=O)cc2C1)c1ccc(C2CCCCC2)cc1 (centres unmarked)
number: 200
//
compound: Cn1nc2c(cc1=O)CC(NC(=O)c1cccc3ccccc13)CC2 (centres unmarked)
number: 200
//
compound: Cn1nc2c(cc1=O)CC(NC(=O)c1ccc(F)cc1)CC2 (centres unmarked)
number: 200
//
compound: Cn1nc2c(cc1=O)CC(NC(=O)c1ccc(Cl)cc1)CC2 (centres unmarked)
number: 200
//
compound: CC(C)c1ccc(C(=O)NC2CCc3nn(CC4CCCCC4)c(=O)cc3C2)cc1 (centres unmarked)
number: 200
//
compound: CC(C)c1ccc(C(=O)NC2CCc3nn(CC4CC4)c(=O)cc3C2)cc1 (centres unmarked)
number: 200
//
compound: CC(C)C(=O)NC1CCc2n[nH]c(=O)cc2C1 (centres unmarked)
number: 100
//
compound: CCCn1nc2c(cc1=O)CC(NC(=O)c1ccc(C(C)C)cc1)CC2 (centres unmarked)
number: 200
//
compound: CCC(=O)NC1CCc2n[nH]c(=O)cc2C1 (centres unmarked)
number: 200
//
compound: CC(C)(C)C(=O)NC1CCc2n[nH]c(=O)cc2C1 (centres unmarked)
number: 200
//
compound: CCCC(=O)NC1CCc2n[nH]c(=O)cc2C1 (centres unmarked)
number: 200
//
compound: O=C(NC1CCc2n[nH]c(=O)cc2C1)C1CCCCC1 (centres unmarked)
number: 0.1
//
compound: O=C(NC1CCc2n[nH]c(=O)cc2C1)c1ccc(Cl)cc1 (centres unmarked)
number: 200
//
compound: CC(C)c1ccc(C(=O)NC2CCc3n[nH]c(=O)cc3C2)cc1 (centres unmarked)
number: 200
//
compound: CCCC(=O)NC1CCc2nn(C)c(=O)cc2C1 (centres unmarked)
number: 100
//
compound: CC(C)c1ccc(C(=O)NC2CCc3nn(CC4CCC4)c(=O)cc3C2)cc1 (centres unmarked)
number: 100
//
compound: CC(C)c1ccc(C(=O)NC2CCc3nn(C(C)C)c(=O)cc3C2)cc1 (centres unmarked)
number: 200
//
compound: Cn1nc2c(cc1=O)CC(NC(=O)c1ccc3ccccc3c1)CC2 (centres unmarked)
number: 100
//
compound: CC(C)c1ccc(C(=O)NC2CCc3nn(C4CCCC4)c(=O)cc3C2)cc1 (centres unmarked)
number: 200
//
compound: Cn1nc2c(cc1=O)CC(NC(=O)c1ccc(I)cc1)CC2 (centres unmarked)
number: 200
//
compound: CCCCC(=O)NC1CCc2n[nH]c(=O)cc2C1 (centres unmarked)
number: 100
//
compound: O=C(NC1CCc2n[nH]c(=O)cc2C1)C1CC1 (centres unmarked)
number: 200
//
compound: CC(C)c1ccc(C(=O)NC2CCc3nn(C4CCOCC4)c(=O)cc3C2)cc1 (centres unmarked)
number: 200
//
compound: O=C(NC1CCc2n[nH]c(=O)cc2C1)c1ccccc1 (centres unmarked)
number: 50
//
compound: CC(C)c1ccc(C(=O)NC2CCc3nn(CC(=O)O)c(=O)cc3C2)cc1 (centres unmarked)
number: 200

----------
# System: HLA-DQ2
# assay protocol: Inhibition of IL-2 secretion by TCR transductants stimulated by α-gliadin peptides presented by HLA-DQ2 expressing K562 cells (ELISA)
# Type: cell-based, human
# recorded conditions: from dose-response curve; figure in brackets in the cell
metric name: concentration at which the compound exhibited maximum % inhibition (DQ2 IL2)

molecule: CC(C)c1ccc(C(=O)NC2CCc3nn(C4CC4)c(=O)cc3C2)cc1 (stereo not drawn)
result: 200 µM
--
molecule: Cn1nc2c(cc1=O)CC(NC(=O)c1ccc(C(F)(F)F)cc1)CC2 (stereo not drawn)
result: 100 µM
--
molecule: CCCn1nc2c(cc1=O)CC(NC(=O)c1ccc(CC)cc1)CC2 (stereo not drawn)
result: 200 µM
--
molecule: Cc1ccc(C(=O)NC2CCc3nn(C)c(=O)cc3C2)cc1 (stereo not drawn)
result: 200 µM
--
molecule: O=C(NC1CCc2n[nH]c(=O)cc2C1)c1ccc(I)cc1 (stereo not drawn)
result: 200 µM
--
molecule: CC(C)c1ccc(C(=O)NC2CCc3nn(C4CCCCC4)c(=O)cc3C2)cc1 (stereo not drawn)
result: 200 µM
--
molecule: O=C(NC1CCc2n[nH]c(=O)cc2C1)c1ccc(Br)cc1 (stereo not drawn)
result: 200 µM
--
molecule: CC(C)c1ccc(C(=O)NC2CCc3nn(CC(F)(F)F)c(=O)cc3C2)cc1 (stereo not drawn)
result: 200 µM
--
molecule: Cc1ccc(C(=O)NC2CCc3n[nH]c(=O)cc3C2)cc1 (stereo not drawn)
result: 100 µM

----------
# Test system: HLA-DQ2
# assay protocol: Inhibition of IL-2 secretion by TCR transductants stimulated by α-gliadin peptides presented by HLA-DQ2 expressing K562 cells (ELISA)
# Assay type: cell-based, human
# recorded conditions: from dose-response curve; figure in brackets in the cell
metric name: concentration at which the compound exhibited maximum % inhibition (DQ2 IL2) (µM)

molecule: CC(=O)NC1CCc2nn(C)c(=O)cc2C1 (stereo not shown) [Compound 18]
number: 100
//
molecule: CCc1ccc(C(=O)NC2CCc3nn(CC(N)=O)c(=O)cc3C2)cc1 (stereo not shown) [Compound 38]
number: 200
//
molecule: O=C(NC1CCc2n[nH]c(=O)cc2C1)c1ccc(F)cc1 (stereo not shown) [Compound 28]
number: 200
//
molecule: Cn1nc2c(cc1=O)CC(NC(=O)c1ccccc1)CC2 (stereo not shown) [Compound 16]
number: 100
//
molecule: CNC(=O)Cn1nc2c(cc1=O)CC(NC(=O)c1ccc(C(C)C)cc1)CC2 (stereo not shown) [Compound 42]
number: 200
//
molecule: Cn1nc2c(cc1=O)CC(NC(=O)C1CCCCC1)CC2 (stereo not shown) [Compound 19]
number: 100
//
molecule: CCc1ccc(C(=O)NC2CCc3nn(CC)c(=O)cc3C2)cc1 (stereo not shown) [Compound 36]
number: 200

----------
# System: HLA-DQ2
# assay protocol: Inhibition of IL-2 secretion by TCR transductants stimulated by α-gliadin peptides presented by HLA-DQ2 expressing K562 cells (ELISA)
# Format: cell-based, human
# recorded conditions: IL-2 secretion, TCR transductants (α I- or α II-gliadin) + gliadin peptide + HLA-DQ2 K562 cells; at the concentration given in brackets
metric name: DQ2 IL2 Maximal % Inhibition

compound: Cn1nc2c(cc1=O)CC(NC(=O)c1ccc(Cl)cc1)CC2 (stereo not drawn) [Compound 33]
metric name: DQ2 IL2 Maximal % Inhibition
result: B (B=41-70%)

compound: Cn1nc2c(cc1=O)CC(NC(=O)c1ccc3ccccc3c1)CC2 (stereo not drawn) [Compound 17]
metric name: DQ2 IL2 Maximal % Inhibition
result: A (A=71-100%)

compound: O=C(NC1CCc2n[nH]c(=O)cc2C1)c1ccc(C2CCCCC2)cc1 (stereo not drawn) [Compound 14]
metric name: DQ2 IL2 Maximal % Inhibition
result: B (B=41-70%)

compound: CC(C)c1ccc(C(=O)NC2CCc3nn(C4CCC4)c(=O)cc3C2)cc1 (stereo not drawn) [Compound 56]
metric name: DQ2 IL2 Maximal % Inhibition
result: A (A=71-100%)

compound: Cn1nc2c(cc1=O)CC(NC(=O)c1ccc(Br)cc1)CC2 (stereo not drawn) [Compound 34]
metric name: DQ2 IL2 Maximal % Inhibition
result: A (A=71-100%)

compound: CC(C)c1ccc(C(=O)NC2CCc3nn(CC(=O)O)c(=O)cc3C2)cc1 (stereo not drawn) [Compound 43]
metric name: DQ2 IL2 Maximal % Inhibition
result: A (A=71-100%)

compound: CCCc1ccc(C(=O)NC2CCc3n[nH]c(=O)cc3C2)cc1 (stereo not drawn) [Compound 3]
metric name: DQ2 IL2 Maximal % Inhibition
result: B (B=41-70%)
